# pIC50 values compiled below
Molecular target: TYK2 (Homo sapiens)
Construct: endogenous in cells; host or cells: Molt4 (ATCC CRL-1582) and Ramos (ATCC CRL-1596), mixed lysate 1:2
Sequence (P29597 whole entry): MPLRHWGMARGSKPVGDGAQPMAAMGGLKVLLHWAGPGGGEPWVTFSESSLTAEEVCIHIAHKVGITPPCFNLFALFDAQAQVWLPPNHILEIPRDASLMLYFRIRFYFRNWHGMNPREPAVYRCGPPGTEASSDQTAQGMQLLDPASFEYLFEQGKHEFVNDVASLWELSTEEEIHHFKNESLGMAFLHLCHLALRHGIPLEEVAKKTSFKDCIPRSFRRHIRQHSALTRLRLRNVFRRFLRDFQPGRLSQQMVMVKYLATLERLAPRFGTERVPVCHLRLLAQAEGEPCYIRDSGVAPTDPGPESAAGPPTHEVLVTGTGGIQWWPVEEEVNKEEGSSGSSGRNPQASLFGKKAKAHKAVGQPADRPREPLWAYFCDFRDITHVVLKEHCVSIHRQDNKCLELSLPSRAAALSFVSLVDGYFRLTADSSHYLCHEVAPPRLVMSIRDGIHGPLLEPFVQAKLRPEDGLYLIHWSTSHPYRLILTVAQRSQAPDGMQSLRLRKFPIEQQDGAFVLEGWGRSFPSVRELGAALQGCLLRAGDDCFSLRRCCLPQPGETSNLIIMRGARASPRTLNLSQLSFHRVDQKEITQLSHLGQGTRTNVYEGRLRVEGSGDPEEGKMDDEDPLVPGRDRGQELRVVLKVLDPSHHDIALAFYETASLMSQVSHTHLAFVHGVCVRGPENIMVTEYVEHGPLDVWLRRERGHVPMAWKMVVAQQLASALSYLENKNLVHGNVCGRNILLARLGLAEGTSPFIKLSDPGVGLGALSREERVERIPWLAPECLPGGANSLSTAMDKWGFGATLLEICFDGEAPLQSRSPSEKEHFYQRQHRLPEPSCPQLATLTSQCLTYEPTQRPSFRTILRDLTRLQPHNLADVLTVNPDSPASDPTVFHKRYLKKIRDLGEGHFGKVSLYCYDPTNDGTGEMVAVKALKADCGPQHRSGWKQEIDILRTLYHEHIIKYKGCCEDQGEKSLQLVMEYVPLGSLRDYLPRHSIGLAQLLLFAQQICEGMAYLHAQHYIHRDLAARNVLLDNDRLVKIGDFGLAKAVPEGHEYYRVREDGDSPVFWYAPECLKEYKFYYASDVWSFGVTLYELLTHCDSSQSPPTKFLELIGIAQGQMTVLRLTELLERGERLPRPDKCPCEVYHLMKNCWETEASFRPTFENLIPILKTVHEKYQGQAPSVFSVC
Assay: Kinobeads assay, TYK2
Format: binding
Details: mixed Molt4/Ramos lysate, read-out: Inhibition values (IC50) TYK2
Description: The compounds of the present invention as described in the previous examples were tested in a Kinobeads™ assay as described for ZAP-70 (WO-A 2007/137867). […] Bound proteins were then eluted and the presence of JAK1, JAK2, JAK3 and TYK2 was detected and quantified using specific antibodies in a dot blot procedure and the Odyssey infrared detection system. Dose response curves for individual kinases were generated and IC50 values calculated. […]
pIC50: −log10 of the molar value.

These solved cases illustrate the format of a correct answer.
1) CNC(=O)[C@@H](Nc1nc(Nc2cnn(C)c2)ncc1Cl)c1ccccc1	5.00 to 6.00
2) CNC(=O)Cn1cc(Nc2ncc(Cl)c(N[C@H](CCO)c3ccccc3)n2)cn1	5.00 to 6.00
3) OC[C@@H](Nc1nc(Nc2cn[nH]c2)ncc1Cl)c1ccccc1F	5.00 to 6.00
4) Cn1cc(-c2cccc([C@@H](CO)Nc3nc(Nc4cnn(CCO)c4)ncc3Cl)c2)cn1	≤ 5.00

INPUT: # query: pIC50 of entry Cn1cc(-c2cccc(C(CO)Nc3nc(Nc4cnn(CCO)c4)ncc3Cl)c2)cn1 (centres unmarked)
OUTPUT: ≤ 5.00

INPUT: Find the recorded pIC50 belonging to COc1cccc([C@@H](CO)Nc2nc(Nc3cnn(CC(N)=O)c3)ncc2Cl)c1 and report it.
OUTPUT: 5.00 to 6.00

INPUT: Quick one: pIC50 for OCCn1cc(Nc2ncc(Cl)c(N[C@H](CO)c3cccc(F)c3)n2)cn1 ?
OUTPUT: 6.00 to 7.00

INPUT: Fill in the blank: the reported pIC50 of OCCn1cc(Nc2ncc(F)c(N[C@H](CO)c3cc(F)ccc3F)n2)cn1 is ____.
OUTPUT: 6.00 to 7.00
